Numbers sourced from ChEMBL document CHEMBL1201862.

Here the recorded AC50 is given for each entry.
Molecular target: FAD-linked sulfhydryl oxidase ALR (Homo sapiens, UniProt P55789)
Sequence (P55789 whole entry): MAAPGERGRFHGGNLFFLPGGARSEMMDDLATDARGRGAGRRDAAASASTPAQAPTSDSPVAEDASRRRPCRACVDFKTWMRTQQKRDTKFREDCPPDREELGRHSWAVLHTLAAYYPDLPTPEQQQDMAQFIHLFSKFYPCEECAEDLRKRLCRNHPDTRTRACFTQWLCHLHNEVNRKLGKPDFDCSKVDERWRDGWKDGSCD
Assay: inhibitors of human ALR sulfhydryl oxidase, dose response, biochemical, H2O2 detection, luminescence, cherry-pick (AID 493248)
The source made the active and inactive calls.

CC(C)(C)NC(=O)NC(=O)CN1CCN(c2ccc(O)cc2)CC1
4.04 µM (active)
COc1cc(/C=N/NC2=NC(=O)C(c3ccccc3)S2)ccc1O (stereo unspecified)
0.249 µM (active)

Fetch value of AC50 on FAD-linked sulfhydryl oxidase ALR (Homo sapiens, UniProt P55789) for COc1ccc(Nc2[nH]nc(N)c2C(N)=O)cc1 .
2.71 µM (active)

Fetch value of AC50 on FAD-linked sulfhydryl oxidase ALR (Homo sapiens, UniProt P55789) for CC1CCc2sc(-c3nnc(S)o3)cc2C1 (stereo unspecified) .
1.2 µM (active)

Fetch value of AC50 on FAD-linked sulfhydryl oxidase ALR (Homo sapiens, UniProt P55789) for Cn1c(N)c(N2CCN(c3ccccc3)CC2)c(=O)[nH]c1=O .
3.9 µM (active)

Fetch value of AC50 on FAD-linked sulfhydryl oxidase ALR (Homo sapiens, UniProt P55789) for COc1cc(C)c(C(=O)Oc2cc(C)c(C(=O)O)c(O)c2C)c(OC)c1C .
0.784 µM (active)

Fetch value of AC50 on FAD-linked sulfhydryl oxidase ALR (Homo sapiens, UniProt P55789) for CN(C)c1ccc(/C=N/NC(=O)c2ccn(C)n2)cc1 .
25.6 µM (active)

Fetch value of AC50 on FAD-linked sulfhydryl oxidase ALR (Homo sapiens, UniProt P55789) for Cc1nc(C#N)c(N/N=C/c2c(F)cccc2Cl)o1 .
2.54 µM (active)

Fetch value of AC50 on FAD-linked sulfhydryl oxidase ALR (Homo sapiens, UniProt P55789) for O=C(O)c1ccc(N/N=C/c2cn(Cc3ccccc3F)c3ccccc23)cc1 .
2.1 µM (active)

Fetch value of AC50 on FAD-linked sulfhydryl oxidase ALR (Homo sapiens, UniProt P55789) for Cc1ccc(SCc2noc(C(=O)NC(C)C)c2C(=O)O)cc1C .
4.26 µM (active)

Fetch value of AC50 on FAD-linked sulfhydryl oxidase ALR (Homo sapiens, UniProt P55789) for O=C(N/N=C/c1ccc(O)c(O)c1)C1CC1 .
0.127 µM (active)

* * *

Molecular target: Peroxisome proliferator-activated receptor gamma/Nuclear receptor coactivator 3 (Homo sapiens, UniProt P37231);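 also: agonist potency for raising coactivator recruitment to the receptor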
Sequence (P37231 whole entry): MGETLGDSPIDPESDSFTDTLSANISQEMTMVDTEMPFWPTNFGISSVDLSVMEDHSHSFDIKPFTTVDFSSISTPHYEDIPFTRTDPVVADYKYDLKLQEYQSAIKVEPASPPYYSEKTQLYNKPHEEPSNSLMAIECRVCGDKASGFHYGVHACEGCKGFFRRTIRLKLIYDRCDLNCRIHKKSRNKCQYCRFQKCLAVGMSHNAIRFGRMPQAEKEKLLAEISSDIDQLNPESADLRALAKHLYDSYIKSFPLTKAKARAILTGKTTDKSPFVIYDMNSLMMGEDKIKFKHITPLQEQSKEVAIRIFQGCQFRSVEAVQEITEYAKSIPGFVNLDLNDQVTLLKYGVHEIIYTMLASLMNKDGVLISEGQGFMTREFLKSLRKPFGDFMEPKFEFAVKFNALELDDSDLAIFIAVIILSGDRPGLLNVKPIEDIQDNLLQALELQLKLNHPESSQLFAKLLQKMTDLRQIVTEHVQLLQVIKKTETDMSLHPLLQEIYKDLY
Sequence (Q9Y6Q9 whole entry, further chain): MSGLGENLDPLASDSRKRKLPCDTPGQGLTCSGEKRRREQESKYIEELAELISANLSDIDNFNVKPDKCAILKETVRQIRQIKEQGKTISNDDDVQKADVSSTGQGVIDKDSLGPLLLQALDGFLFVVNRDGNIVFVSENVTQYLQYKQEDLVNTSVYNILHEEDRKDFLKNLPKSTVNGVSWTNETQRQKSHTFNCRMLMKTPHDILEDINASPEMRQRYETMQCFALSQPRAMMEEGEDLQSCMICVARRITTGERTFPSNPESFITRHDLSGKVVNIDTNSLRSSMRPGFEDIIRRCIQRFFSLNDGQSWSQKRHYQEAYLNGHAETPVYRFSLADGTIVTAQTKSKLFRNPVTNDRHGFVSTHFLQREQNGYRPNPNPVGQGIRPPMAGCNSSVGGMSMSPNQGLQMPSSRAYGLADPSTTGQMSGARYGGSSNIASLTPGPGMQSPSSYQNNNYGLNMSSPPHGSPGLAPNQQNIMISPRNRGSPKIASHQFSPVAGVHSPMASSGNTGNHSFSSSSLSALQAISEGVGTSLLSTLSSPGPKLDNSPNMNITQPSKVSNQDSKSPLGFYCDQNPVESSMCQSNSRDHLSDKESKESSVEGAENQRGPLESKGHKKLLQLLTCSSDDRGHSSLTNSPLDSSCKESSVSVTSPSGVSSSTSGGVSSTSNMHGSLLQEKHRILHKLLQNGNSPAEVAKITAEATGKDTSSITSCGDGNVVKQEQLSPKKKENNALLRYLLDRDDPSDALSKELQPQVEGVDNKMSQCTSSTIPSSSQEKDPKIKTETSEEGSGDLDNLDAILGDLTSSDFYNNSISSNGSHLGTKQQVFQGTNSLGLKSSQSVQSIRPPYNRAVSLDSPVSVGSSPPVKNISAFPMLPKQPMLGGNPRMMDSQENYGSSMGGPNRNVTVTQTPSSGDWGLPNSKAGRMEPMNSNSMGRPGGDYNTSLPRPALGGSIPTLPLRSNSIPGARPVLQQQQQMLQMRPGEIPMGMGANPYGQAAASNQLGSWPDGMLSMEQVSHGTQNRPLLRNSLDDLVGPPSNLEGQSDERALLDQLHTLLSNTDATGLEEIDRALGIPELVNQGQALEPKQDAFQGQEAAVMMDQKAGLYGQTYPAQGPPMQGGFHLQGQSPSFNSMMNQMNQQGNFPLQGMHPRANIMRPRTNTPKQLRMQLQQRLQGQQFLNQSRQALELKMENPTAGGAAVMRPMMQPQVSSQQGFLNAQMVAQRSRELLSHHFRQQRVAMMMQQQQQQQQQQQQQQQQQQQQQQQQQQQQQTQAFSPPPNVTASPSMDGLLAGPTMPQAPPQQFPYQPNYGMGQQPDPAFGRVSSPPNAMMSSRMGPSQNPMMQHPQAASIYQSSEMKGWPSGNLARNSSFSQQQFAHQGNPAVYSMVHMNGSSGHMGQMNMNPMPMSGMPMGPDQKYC
Assay type: functional
readoutLabel: EC50

Cc1cc(C)c(C(=O)CSc2nnc(-c3ccccc3Br)o2)cc1C
69.8 µM (not active)

Output EC50 of COc1ccc(-c2cc(C(F)F)n3ncc(C(=O)N4CCCc5ccccc54)c3n2)cc1
> 79.4 µM (not active)

Output EC50 of CCOC(=O)c1ccccc1NC(=O)c1cn(-c2ccc(C)c(C)c2)c(=O)c2ccccc12
> 79.4 µM (not active)

Output EC50 of O=C(c1cc(COc2ccc(F)cc2Cl)on1)N1CCCC(OCc2cccnc2)C1 (stereo not given)
> 79.4 µM (not active)

Output EC50 of CCOC(=O)C1CCCN(S(=O)(=O)c2cc(Br)cc3c2N(C(=O)C2CC2)CC3)C1 (stereo not given)
> 79.4 µM (not active)

* * *

Biological target: RNA-binding protein pos-1 (Caenorhabditis elegans, UniProt G5EF15)
Sequence (G5EF15 whole entry, the tested form may be a part): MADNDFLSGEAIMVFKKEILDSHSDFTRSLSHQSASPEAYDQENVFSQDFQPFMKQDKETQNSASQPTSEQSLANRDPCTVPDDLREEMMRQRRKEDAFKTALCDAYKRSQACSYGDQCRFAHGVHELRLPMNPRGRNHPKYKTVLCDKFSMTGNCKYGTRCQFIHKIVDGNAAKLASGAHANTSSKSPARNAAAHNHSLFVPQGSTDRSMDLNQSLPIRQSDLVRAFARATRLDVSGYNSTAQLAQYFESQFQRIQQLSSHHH
Assay: inhibitors of POS-1/mex-3 RNA binding, dose response, biochemical, fluorescence polarization (AID 1964);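 also: purified POS-1 fused to maltose binding protein made in E. coli; potency of compounds blocking POS-1 binding to fluorescent RNA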
Calls of active or inactive are those of the source.
readoutLabel: EC50

Study these solved cases before continuing.
O=C1NC(=O)[C@@H]2C3c4ccccc4C=CN3[C@H](C(=O)c3cccs3)[C@H]12 (stereo partly drawn)
24.6 µM (inconclusive)
COc1ccc(C(=O)c2sc3nc(C)cc(-c4cccs4)c3c2N)cc1
16.9 µM (active)

Output EC50 of CCOC(=O)C1Nc2ccc(C(F)(F)F)cc2C2C=CCC12 (stereo not drawn)
> 300 µM (not active)

* * *

Biological target: Heat shock factor protein 1 (Mus musculus, UniProt P38532)
Sequence (P38532 whole entry): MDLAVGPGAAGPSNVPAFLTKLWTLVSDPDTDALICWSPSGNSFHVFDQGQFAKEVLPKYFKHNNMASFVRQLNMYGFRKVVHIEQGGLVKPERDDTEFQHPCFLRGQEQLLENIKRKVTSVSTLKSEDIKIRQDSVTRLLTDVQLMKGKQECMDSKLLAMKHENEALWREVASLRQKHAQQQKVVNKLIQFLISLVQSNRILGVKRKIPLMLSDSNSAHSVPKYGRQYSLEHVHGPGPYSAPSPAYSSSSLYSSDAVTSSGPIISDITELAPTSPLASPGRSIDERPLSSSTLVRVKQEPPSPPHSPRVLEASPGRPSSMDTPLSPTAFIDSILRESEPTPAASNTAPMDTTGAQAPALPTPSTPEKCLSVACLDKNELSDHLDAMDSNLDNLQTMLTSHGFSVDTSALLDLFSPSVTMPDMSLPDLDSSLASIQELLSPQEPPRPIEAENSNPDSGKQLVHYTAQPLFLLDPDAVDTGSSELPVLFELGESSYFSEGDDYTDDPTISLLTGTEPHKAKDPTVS
Test: HSF1 potentiators in luciferase reporter cells, confirmation, cell-based, NIH3T3, luminescence, dose retest (AID 435004);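 also: stress induced by proteasome inhibitor MG132 added 30 min after compound; luciferase reporter driven by HSF1 response element in NIH3T3 cells; actives raise luminescence as potentiators of the MG132 stress response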
Format: functional
Calls of active or inactive are those of the source.
Return exactly one item of t (active), f (inactive)

Recorded results for 8 molecules are shown here.
O=C(NCc1ccccn1)c1cc(-c2ccc(-c3ccccc3)cc2)nc2ccccc12
t
C/C(CC(=O)Nc1cccc2c1CCCC2)=N\NC(=O)COc1ccccc1
f
COc1ccc(/C=C(\C#N)C(=O)Nc2cccc(C)n2)cc1
t
Cc1nnc(SCC2=C(C(=O)O)N3C(=O)C(NC(=O)c4cccc(F)c4F)C3SC2)s1 (stereo not given)
t
CCN(CC)c1ccc(/C=C2/C(=O)N(c3ccc([N+](=O)[O-])cc3)N=C2N2CCOCC2)cc1
f
COCc1cc(CN2CCN(CCc3ccccc3)C(CCO)C2)ccc1OC (stereo not given)
f
CCN(C(=O)c1cc2c(O)nc3ccc(C)cc3c2s1)c1ccccc1F
f
O=C1CC(c2ccc(Cl)cc2)n2nc(NS(=O)(=O)c3ccc(F)cc3)nc2N1 (stereo not given)
f

Assay outcome for O=C(COC(=O)COc1cccc(Br)c1)Nc1c(Cl)cccc1Cl : what was it?
f

Assay outcome for CS/C(=N\C#N)N1CCN(c2ccc(Cl)cc2)CC1 : what was it?
t

* * *

Molecular target: Streptokinase A (Streptococcus pyogenes serotype M1, UniProt P10520)
Sequence (P10520 whole entry): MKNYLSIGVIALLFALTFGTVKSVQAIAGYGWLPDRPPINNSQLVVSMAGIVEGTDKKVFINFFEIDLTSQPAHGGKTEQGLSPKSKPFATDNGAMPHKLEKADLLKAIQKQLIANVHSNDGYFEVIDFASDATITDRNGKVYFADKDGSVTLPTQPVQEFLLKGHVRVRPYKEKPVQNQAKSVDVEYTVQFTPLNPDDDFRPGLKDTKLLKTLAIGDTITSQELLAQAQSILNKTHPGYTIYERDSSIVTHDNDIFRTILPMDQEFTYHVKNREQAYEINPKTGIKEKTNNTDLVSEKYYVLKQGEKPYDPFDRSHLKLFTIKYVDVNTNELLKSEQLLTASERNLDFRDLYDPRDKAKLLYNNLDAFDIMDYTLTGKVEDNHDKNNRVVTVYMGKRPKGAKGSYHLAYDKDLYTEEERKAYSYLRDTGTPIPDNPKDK
Test: S. pyogenes streptokinase expression inhibitors, potency, dose response, plasminogen activation absorbance, OD405 (AID 1914);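 also: secreted streptokinase activity via plasminogen activation per viability signal from cell pellet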
Assay type: functional, Streptococcus pyogenes M1 GAS
Active and inactive are the calls of the source.
Here the recorded EC50 is given for each entry.

Study these solved cases before continuing.
CC(C)=CCc1c(O)cc2c(c1O)C(=O)CC(c1ccc(O)cc1)O2 (stereo unspecified)
> 150 µM (not active)
CCCn1nnnc1NC(=O)c1ccc2ccccc2c1
> 150 µM (not active)
Clc1ccc(SCc2cc(Cl)nc(-c3ccccc3)n2)cc1
17 µM (active)

Fetch value of EC50 on Streptokinase A (Streptococcus pyogenes serotype M1, UniProt P10520) for COc1ccc(-c2oc3cccnc3c2C#CC2(O)CCCCC2)cc1 .
> 150 µM (not active)

Fetch value of EC50 on Streptokinase A (Streptococcus pyogenes serotype M1, UniProt P10520) for CCOC(=O)c1cnc(-n2nc(C)cc2C)nc1NCc1ccccc1 .
> 150 µM (not active)

Fetch value of EC50 on Streptokinase A (Streptococcus pyogenes serotype M1, UniProt P10520) for Cc1nnc(SCC2=C(C(=O)O)N3C(=O)C(NC(=O)c4cccc(F)c4F)C3SC2)s1 (stereo unspecified) .
> 150 µM (not active)

* * *

Molecular target: 5'-AMP-activated protein kinase catalytic subunit alpha-1 (Homo sapiens)
Sequence (Q13131 whole entry): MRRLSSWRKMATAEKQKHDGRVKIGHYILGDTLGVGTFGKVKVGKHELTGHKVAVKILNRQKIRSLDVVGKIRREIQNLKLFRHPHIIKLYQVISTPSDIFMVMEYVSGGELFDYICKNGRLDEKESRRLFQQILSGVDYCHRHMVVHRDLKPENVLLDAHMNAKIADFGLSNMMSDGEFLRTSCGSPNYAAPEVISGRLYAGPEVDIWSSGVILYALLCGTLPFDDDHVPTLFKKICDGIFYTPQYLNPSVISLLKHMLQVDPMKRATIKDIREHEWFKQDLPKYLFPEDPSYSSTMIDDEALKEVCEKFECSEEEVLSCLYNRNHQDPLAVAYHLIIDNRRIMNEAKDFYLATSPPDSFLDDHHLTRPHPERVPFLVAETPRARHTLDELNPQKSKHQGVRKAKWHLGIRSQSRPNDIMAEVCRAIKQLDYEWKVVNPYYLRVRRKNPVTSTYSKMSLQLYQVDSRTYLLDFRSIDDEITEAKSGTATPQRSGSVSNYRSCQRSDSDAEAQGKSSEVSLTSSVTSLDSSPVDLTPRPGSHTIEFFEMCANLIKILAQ
Type: functional
Active and inactive are the calls of the source.
Return exactly one item of y = active, n = inactive

Recorded results for 3 compounds are shown here.
O=C(Nc1cccc(C(F)(F)F)n1)Nc1ccnc2cc(Cl)ccc12
n
O=C(Nc1cccc(C(F)(F)F)n1)Nc1ccnc2cc(OC(F)F)ccc12
n
O=c1[nH]c2cc(Br)cnc2[nH]1
y

Assay outcome for CCC1CC(NS(=O)(=O)C2CC2)CC1c1ncc2cnc3[nH]ccc3n12 (centres undefined) : what was it?
y

* * *

Biological target: UniProt P11362
Sequence (P11362 whole entry): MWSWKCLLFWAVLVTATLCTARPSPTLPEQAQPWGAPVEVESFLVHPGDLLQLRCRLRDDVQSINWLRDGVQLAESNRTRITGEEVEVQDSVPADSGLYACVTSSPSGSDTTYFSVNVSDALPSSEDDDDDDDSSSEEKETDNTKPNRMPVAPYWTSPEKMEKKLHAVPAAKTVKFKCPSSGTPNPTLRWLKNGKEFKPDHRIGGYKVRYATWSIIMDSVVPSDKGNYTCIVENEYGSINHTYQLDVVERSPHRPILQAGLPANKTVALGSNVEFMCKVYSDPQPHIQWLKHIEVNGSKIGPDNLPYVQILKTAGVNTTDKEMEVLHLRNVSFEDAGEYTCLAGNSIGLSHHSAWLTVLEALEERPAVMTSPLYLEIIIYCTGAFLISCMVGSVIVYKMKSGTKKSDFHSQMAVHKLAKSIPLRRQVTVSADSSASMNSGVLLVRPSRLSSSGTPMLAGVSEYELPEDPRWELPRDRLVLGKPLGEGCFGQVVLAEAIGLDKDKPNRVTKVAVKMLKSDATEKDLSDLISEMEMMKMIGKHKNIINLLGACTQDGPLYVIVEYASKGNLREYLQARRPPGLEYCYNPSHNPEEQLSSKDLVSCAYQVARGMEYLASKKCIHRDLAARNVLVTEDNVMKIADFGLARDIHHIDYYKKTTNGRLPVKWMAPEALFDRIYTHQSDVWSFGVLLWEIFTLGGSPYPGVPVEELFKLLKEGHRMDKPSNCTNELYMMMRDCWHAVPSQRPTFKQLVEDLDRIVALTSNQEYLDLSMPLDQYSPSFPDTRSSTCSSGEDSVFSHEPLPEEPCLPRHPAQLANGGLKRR
Type: functional
Activity calls are given as the source filed them.
Return exactly one item of active, inactive

Recorded results for 3 molecules are shown here.
CCC1CC(NS(=O)(=O)C2CC2)CC1c1ncc2cnc3[nH]ccc3n12 (centres undefined)
active
O=C(Nc1cccc(C(F)(F)F)n1)Nc1ccnc2cc(Cl)ccc12
inactive
O=C(Nc1cccc(C(F)(F)F)n1)Nc1ccnc2cc(OC(F)F)ccc12
inactive

# input for lookup
Assay outcome for O=c1[nH]c2cc(Br)cnc2[nH]1 : what was it?
active

* * *

Here the recorded IC50 is given for each entry.
Biological target: UniProt:Q9GZR1
Sequence (Q9GZR1 whole entry): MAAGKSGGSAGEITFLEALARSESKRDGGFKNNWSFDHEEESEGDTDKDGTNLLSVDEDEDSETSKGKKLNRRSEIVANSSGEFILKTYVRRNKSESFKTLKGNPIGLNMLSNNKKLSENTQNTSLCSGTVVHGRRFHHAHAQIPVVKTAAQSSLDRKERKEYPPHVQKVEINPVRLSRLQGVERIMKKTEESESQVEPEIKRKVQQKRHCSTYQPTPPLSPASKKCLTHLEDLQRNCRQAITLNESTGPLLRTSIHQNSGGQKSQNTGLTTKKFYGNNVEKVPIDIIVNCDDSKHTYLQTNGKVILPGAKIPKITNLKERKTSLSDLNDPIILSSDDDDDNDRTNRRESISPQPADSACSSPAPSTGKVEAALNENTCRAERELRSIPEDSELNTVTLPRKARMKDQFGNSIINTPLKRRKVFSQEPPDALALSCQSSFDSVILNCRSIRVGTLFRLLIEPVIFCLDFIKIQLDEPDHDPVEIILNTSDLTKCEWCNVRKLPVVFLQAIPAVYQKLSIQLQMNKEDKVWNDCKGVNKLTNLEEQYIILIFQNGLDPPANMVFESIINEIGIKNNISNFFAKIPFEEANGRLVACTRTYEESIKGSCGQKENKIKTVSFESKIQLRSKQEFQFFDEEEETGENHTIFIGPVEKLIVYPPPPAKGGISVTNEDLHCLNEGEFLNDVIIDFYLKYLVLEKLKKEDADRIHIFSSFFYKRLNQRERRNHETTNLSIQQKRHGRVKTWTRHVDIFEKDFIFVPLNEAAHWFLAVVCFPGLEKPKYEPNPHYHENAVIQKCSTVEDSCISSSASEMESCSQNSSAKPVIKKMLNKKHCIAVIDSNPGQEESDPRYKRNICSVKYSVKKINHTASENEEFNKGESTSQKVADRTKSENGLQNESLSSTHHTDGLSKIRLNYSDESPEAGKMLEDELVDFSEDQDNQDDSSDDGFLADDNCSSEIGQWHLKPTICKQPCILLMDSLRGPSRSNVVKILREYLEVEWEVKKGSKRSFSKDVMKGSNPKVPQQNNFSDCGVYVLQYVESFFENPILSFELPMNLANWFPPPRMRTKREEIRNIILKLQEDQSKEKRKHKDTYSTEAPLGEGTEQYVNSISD
Format: functional
Active and inactive are the calls of the source.

O=C(O)c1ccc(N/N=C/c2cn(Cc3ccccc3F)c3ccccc23)cc1
2.6 µM (active)

Output IC50 of Cc1ccc(Nc2nc(-c3cccnc3)cs2)cc1C
7.01 µM (active)

Output IC50 of COc1cc(O)c(CC=C(C)C)c(O)c1C(=O)CCc1ccc(O)cc1 [DIHYDROXANTHOHUMOL]
10 µM (active)

Output IC50 of O=C(COC(=O)c1cccc(NC(=O)c2ccco2)c1)c1ccc(Br)cc1
9.01 µM (active)

Output IC50 of Cc1ccnc(Nc2nc(-c3ccccc3)cs2)c1
7.16 µM (active)

Output IC50 of COc1cccc(OCc2cc(/C=N/Nc3ccc(C(=O)O)cc3)ccc2OC)c1
6.91 µM (active)

Output IC50 of Clc1ccc(COn2nnc3ccccc32)c(Cl)c1
31.2 µM (active)
